Test system: S. cerevisiae JAY 270
ASSAY_PROCEDURE: Serum-bottle cultivation in YPD: biomass, glycerol, ethanol yields
Format: cell-based, Saccharomyces cerevisiae
STATED_CONDITIONS: 0.2%, YPD, serum bottles
EXPERIMENTAL_READOUT: Ethanol yield (g/g)
Unit g/g implied. Number only.

Example compounds with recorded Ethanol yield:
>>> value_measured("OCCc1ccccc1")
0.41
>>> value_measured("OCCc1ccc(O)cc1")
0.40
>>> value_measured("OB(O)O [Boric acid, reference compound]")
0.41

Here is the next item to consider.
Lab note: OCCc1c[nH]c2ccccc12 gave Ethanol yield of 0.41

----------
Tested on: S. cerevisiae JAY 270
ASSAY_PROCEDURE: Serum-bottle cultivation in YPD: biomass, glycerol, ethanol yields
Type: cell-based, Saccharomyces cerevisiae
STATED_CONDITIONS: 0.05% (w/v), YPD, serum bottles
Entries and their EtOH yield values follow.
Unit g/g implied. Number only.

Example compounds with recorded EtOH yield:
>>> value_measured("OCCc1c[nH]c2ccccc12 [TrpOH, tryptophol]")
0.41
>>> value_measured("OCCc1ccc(O)cc1 [TyrOH, Tyrosol]")
0.38
>>> value_measured("OCCc1ccccc1 [PheOH, 2-phenylethanol]")
0.40

Here is the next item to consider.
Lab note: OB(O)O [Boric acid, reference compound] gave EtOH yield of 0.41

----------
System: S. cerevisiae JAY 270
ASSAY_PROCEDURE: Serum-bottle cultivation in YPD: biomass, glycerol, ethanol yields
Type: cell-based, Saccharomyces cerevisiae
STATED_CONDITIONS: 0.05%, YPD, serum bottles
Description: Procedure: Cultivations in serum bottles were used to determine the effect of the best-performing screened chemicals on the ethanol yield. […] Analytical methods: Cell growth was evaluated by monitoring OD600 and cell dry mass concentration. […] The cell dry mass was determined by subtracting the initial tube mass from the dried mass of tube with cells. […] Each sample was analyzed three times by HPLC.
Entries and their Ethanol yield vs. reference values follow.
Unit % implied. Number only.

Example compounds with recorded Ethanol yield vs. reference:
>>> value_measured("OCCc1ccccc1")
3.7
>>> value_measured("OB(O)O [Boric acid, reference compound]")
0
>>> value_measured("OCCc1c[nH]c2ccccc12")
7.9

Here is the next item to consider.
Tested on S. cerevisiae JAY 270: OCCc1ccc(O)cc1 . Observed Ethanol yield vs. reference: 0.8

----------
Entries and their Ethanol yield vs. reference values follow.
System: S. cerevisiae JAY 270
ASSAY_PROCEDURE: Serum-bottle cultivation in YPD: biomass, glycerol, ethanol yields
Format: cell-based, Saccharomyces cerevisiae
STATED_CONDITIONS: 0.2%, YPD, serum bottles
Unit % implied. Number only.

Example molecules with recorded Ethanol yield vs. reference:
>>> value_measured("OCCc1c[nH]c2ccccc12")
10.3
>>> value_measured("OB(O)O [Boric acid, reference compound]")
0
>>> value_measured("OCCc1ccccc1")
6.2

Here is the next item to consider.
Lab note: OCCc1ccc(O)cc1 gave Ethanol yield vs. reference of 6.9

----------
Entries and their EtOH yield values follow.
System: S. cerevisiae JAY 270
ASSAY_PROCEDURE: Serum-bottle cultivation in YPD: biomass, glycerol, ethanol yields
Type: cell-based, Saccharomyces cerevisiae
STATED_CONDITIONS: 0.2% (w/v), YPD, serum bottles
Unit g/g implied. Number only.

>>> value_measured("OCCc1ccc(O)cc1 [TyrOH, Tyrosol]")
0.40

Lab note: OCCc1c[nH]c2ccccc12 [TrpOH, tryptophol] gave EtOH yield of 0.41

Lab note: OB(O)O [Boric acid, reference compound] gave EtOH yield of 0.41

Lab note: OCCc1ccccc1 [PheOH, 2-phenylethanol] gave EtOH yield of 0.41
